tested on: 379773-124-R-J2-PDC spheroid viability; assay: Anticancer human tumor 379773-124-R-J2-PDC patient-derived endometrial carcinoma cell line growth inhibition [POLQ]; details: second compound 10 µM; first compound 0.0316 µM; active compounds read low; spheroids with HUVEC and MSC
The entries below come with measured viability, T/C values attached.
Dear colleague, please return just the value in %, with no unit written.

Take a look at these entries with their results.
MOLECULE	MEASURE NAME	MEASURED RESULT
O=C(c1cc(Cc2n[nH]c(=O)c3ccccc23)ccc1F)N1CCN(C(=O)C2CC2)CC1 + Nc1ccc(C#CCN(C(=O)Cc2ncc(C(F)(F)F)cc2C(F)(F)F)c2ccc(F)cc2)nn1	viability, T/C	87.8
CCc1cc2c(N3CCc4c(cc(Cn5ccnc5)cc4-c4cn(C)nc4C(F)(F)F)C3=O)cc(C)nc2c(OC)n1 + Nc1ccc(C#CCN(C(=O)Cc2ncc(C(F)(F)F)cc2C(F)(F)F)c2ccc(F)cc2)nn1	viability, T/C	74.5

Okay, next one:
So the reported viability, T/C for Nc1ccn(C2OC(CO)C(O)C2(F)F)c(=O)n1 (stereo not drawn) + Cc1cccc(N(C)C(=O)C2C(O)CCN2c2nc(C)cc(C(F)(F)F)c2C#N)c1 , on 379773-124-R-J2-PDC spheroid viability, turned out to be 15.7

----------
Test system: 379773-124-R-J2-PDC spheroid viability
Assay: Anticancer human tumor 379773-124-R-J2-PDC cell line growth inhibition [POLQ]; active means viability on the fitted dose curve at most 10% of control; inactive means the rest;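 further: spheroids exposed to drugs for seven days before readout; percent viability relative to DMSO vehicle control taken as 100%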
Settings: second compound 0.1 µM; first compound 0.316 µM; spheroids with HUVEC and MSC
Procedure: Multicellular complex tumor spheroid response to Polymerase (POL) inhibitors (novobiocin, ART-558, RP6685) in combination with a variety of drugs and investigational agents in selected tumor cell lines The POL inhibitors (novobiocin, ART-558, and RP6685) were evaluated both individually and in combination with standard of care and investigational anticancer small molecules within a complex spheroid model of solid tumors. . […]
Use one of these outcomes when replying: 1 (yes) = active, 0 (no) = inactive

COMPOUND	CAT
COc1cccc(OCCCN)c1-c1cc(Nc2cnc(C#N)cn2)n[nH]1 + COC1C(OC(N)=O)C(O)C(Oc2ccc3c(O)c(NC(=O)c4ccc(O)c(CC=C(C)C)c4)c(=O)oc3c2C)OC1(C)C	1 (yes)
COc1ccc([C@@H](O)c2cc(-c3ncnc4cc(N5CCOCC5)ccc34)c(F)cc2Cl)nn1 + Nc1ccc(C#CCN(C(=O)Cc2ncc(C(F)(F)F)cc2C(F)(F)F)c2ccc(F)cc2)nn1	0 (no)
CCc1c2c(nc3ccc(O)cc13)-c1cc3c(c(=O)n1C2)COC(=O)[C@]3(O)CC + Nc1ccc(C#CCN(C(=O)Cc2ncc(C(F)(F)F)cc2C(F)(F)F)c2ccc(F)cc2)nn1	1 (yes)
COc1ccc([C@@H](O)c2cc(-c3ncnc4cc(N5CCOCC5)ccc34)c(F)cc2Cl)nn1 + Cc1cccc(N(C)C(=O)C2C(O)CCN2c2nc(C)cc(C(F)(F)F)c2C#N)c1	0 (no)

Just curious, what result did C=CCn1c(=O)c2cnc(Nc3ccc(N4CCN(C)CC4)cc3)nc2n1-c1cccc(C(C)(C)O)n1 + Nc1ccc(C#CCN(C(=O)Cc2ncc(C(F)(F)F)cc2C(F)(F)F)c2ccc(F)cc2)nn1 get here?
0 (no)

----------
The entries below come with measured viability, T/C values attached.
system: 379773-124-R-J2-PDC spheroid viability; assay: Anticancer human tumor 379773-124-R-J2-PDC cell line growth inhibition [POLQ]; details: second compound 10 µM; first compound 0.0316 µM; active compounds read low; spheroids with HUVEC and MSC;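 further: spheroids exposed to drugs for seven days before readout; percent viability relative to DMSO vehicle control taken as 100%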
Dear colleague, please return just the value in %, with no unit written.

COMPOUND	READING UNIT	viability, T/C
CCc1c2c(nc3ccc(O)cc13)-c1cc3c(c(=O)n1C2)COC(=O)[C@]3(O)CC + COC1C(OC(N)=O)C(O)C(Oc2ccc3c(O)c(NC(=O)c4ccc(O)c(CC=C(C)C)c4)c(=O)oc3c2C)OC1(C)C	%	6.51
COc1cccc2c1C(=O)c1c(O)c3c(c(O)c1C2=O)CC(O)(C(=O)CO)CC3OC1CC(N)C(O)C(C)O1 (stereo unspecified) + Cc1cccc(N(C)C(=O)C2C(O)CCN2c2nc(C)cc(C(F)(F)F)c2C#N)c1	%	48.5
COc1ccc([C@@H](O)c2cc(-c3ncnc4cc(N5CCOCC5)ccc34)c(F)cc2Cl)nn1 + COC1C(OC(N)=O)C(O)C(Oc2ccc3c(O)c(NC(=O)c4ccc(O)c(CC=C(C)C)c4)c(=O)oc3c2C)OC1(C)C	%	80.3
Nc1ccn(C2OC(CO)C(O)C2(F)F)c(=O)n1 (stereo unspecified) + COC1C(OC(N)=O)C(O)C(Oc2ccc3c(O)c(NC(=O)c4ccc(O)c(CC=C(C)C)c4)c(=O)oc3c2C)OC1(C)C	%	17.5
O=C(Nc1ccc(O)c(NS(=O)(=O)c2ccc(F)cc2)c1)c1ccc(-c2ccccc2)cc1 + Nc1ccc(C#CCN(C(=O)Cc2ncc(C(F)(F)F)cc2C(F)(F)F)c2ccc(F)cc2)nn1	%	94.2

So the reported viability, T/C for O=C(Nc1ccc(O)c(NS(=O)(=O)c2ccc(F)cc2)c1)c1ccc(-c2ccccc2)cc1 + Cc1cccc(N(C)C(=O)C2C(O)CCN2c2nc(C)cc(C(F)(F)F)c2C#N)c1 , on 379773-124-R-J2-PDC spheroid viability, turned out to be 84

So the reported viability, T/C for CC1COCCN1c1cc(-c2ccnn2C)c2ccnc(-c3ccn[nH]3)c2n1 (stereo unspecified) + COC1C(OC(N)=O)C(O)C(Oc2ccc3c(O)c(NC(=O)c4ccc(O)c(CC=C(C)C)c4)c(=O)oc3c2C)OC1(C)C , on 379773-124-R-J2-PDC spheroid viability, turned out to be 86.9

So the reported viability, T/C for COc1cccc(OCCCN)c1-c1cc(Nc2cnc(C#N)cn2)n[nH]1 + COC1C(OC(N)=O)C(O)C(Oc2ccc3c(O)c(NC(=O)c4ccc(O)c(CC=C(C)C)c4)c(=O)oc3c2C)OC1(C)C , on 379773-124-R-J2-PDC spheroid viability, turned out to be 2.84

So the reported viability, T/C for CC(C)n1c(=O)n(C)c2cnc3cc(F)c(-c4ccc(OCCCN5CCCCC5)nc4)cc3c21 + Cc1cccc(N(C)C(=O)C2C(O)CCN2c2nc(C)cc(C(F)(F)F)c2C#N)c1 , on 379773-124-R-J2-PDC spheroid viability, turned out to be 78.7

So the reported viability, T/C for O=c1[nH]cc(F)c(=O)[nH]1 + Nc1ccc(C#CCN(C(=O)Cc2ncc(C(F)(F)F)cc2C(F)(F)F)c2ccc(F)cc2)nn1 , on 379773-124-R-J2-PDC spheroid viability, turned out to be 87.4

So the reported viability, T/C for COc1cccc2c1C(=O)c1c(O)c3c(c(O)c1C2=O)CC(O)(C(=O)CO)CC3OC1CC(N)C(O)C(C)O1 (stereo unspecified) + Nc1ccc(C#CCN(C(=O)Cc2ncc(C(F)(F)F)cc2C(F)(F)F)c2ccc(F)cc2)nn1 , on 379773-124-R-J2-PDC spheroid viability, turned out to be 71.2

Data credit: PubChem BioAssay AID1963848
